Attribution: ChEMBL document CHEMBL1133147

# Species: Mus musculus
# Protocol notes: The compound was evaluated for its antinociceptive potency (indicate 95% confidence limit) after intrathecal route in mouse
# Type: functional
A collection of compounds and their measured ED50
Form entry: value (ug mouse-1) — number only.

Consider the reported ED50 for these compounds:
| Structure smiles string | Result value |
| --- | --- |
| CN1CCN=C1c1cccnc1 | 21 |
| CN1CCC[C@H]1c1cccnc1 | 12 |

Entry under review: "CN1CCN=C1Cc1cccnc1" . Reported ED50?
19
